- experimental_system: T1, human transferrin receptor (recombinant, for surface plasmon resonance) (human, UniProt P02786 89-760)
- T1 construct: also called huTfR; human transferrin receptor-biotinylated
- T1 sequence (P02786 89-760 limits assumed): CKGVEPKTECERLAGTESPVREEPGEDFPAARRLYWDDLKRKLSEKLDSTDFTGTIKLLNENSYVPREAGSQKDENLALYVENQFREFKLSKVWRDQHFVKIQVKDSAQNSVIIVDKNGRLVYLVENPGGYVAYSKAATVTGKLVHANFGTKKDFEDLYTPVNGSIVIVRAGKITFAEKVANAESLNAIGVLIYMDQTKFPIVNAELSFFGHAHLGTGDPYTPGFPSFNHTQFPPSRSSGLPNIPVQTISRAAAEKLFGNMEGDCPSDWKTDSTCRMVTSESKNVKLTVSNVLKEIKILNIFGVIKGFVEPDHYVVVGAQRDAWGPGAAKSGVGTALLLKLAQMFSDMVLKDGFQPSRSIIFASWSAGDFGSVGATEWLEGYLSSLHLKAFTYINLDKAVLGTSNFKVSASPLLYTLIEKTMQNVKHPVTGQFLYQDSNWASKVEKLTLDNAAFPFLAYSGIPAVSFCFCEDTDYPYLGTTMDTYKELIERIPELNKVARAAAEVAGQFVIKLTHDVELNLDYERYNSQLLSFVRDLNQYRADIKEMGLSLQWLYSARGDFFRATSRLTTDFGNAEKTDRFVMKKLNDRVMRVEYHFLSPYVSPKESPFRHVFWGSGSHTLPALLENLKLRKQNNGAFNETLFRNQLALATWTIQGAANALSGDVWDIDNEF
- assay_info: SPR 25C
// NB: equality with 0.002 s⁻¹ counts as F; only koff strictly below is T

2/99 VH13/VL3 (antibody, V domains shown) VH: QVQLQESGPGLVKPSETLSLTCTVSGFSLSSYAMSWIRQPPGKGLEWIGYIWSGGSTDYNPSLKSRVTISVDTSKNQVSLKLSSVTAADTAVYYCARRYGTSYPDYGDANGFDPWGQGTLVTVSS VL: AYQMTQSPSSLSASVGDRVTITCRASQSISSYLNWYQQKPGKAPKLLIYRASTLASGVPSRFSGSGSGTDFTLTISSLQPEDFATYYCQQSYSSSNVDNTFGGGTKVEIK | F
2/99 VH19/VL3 (antibody, V domains shown) VH: QSMQESGPGLVKPSQTLSLTCTVSGFSLSSYAMSWIRQHPGKGLEWIGYIWSGGSTDYAPSLKSRVTISVDTSKNQFSLKLSSVTAADTAVYYCARRYGTSYPDYGDANGFDPWGQGTLVTVSS VL: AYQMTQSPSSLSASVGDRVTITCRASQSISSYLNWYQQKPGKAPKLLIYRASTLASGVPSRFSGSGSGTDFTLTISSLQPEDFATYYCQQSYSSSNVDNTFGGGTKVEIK | T
2/99 VH19/VL7 (antibody, V domains shown) VH: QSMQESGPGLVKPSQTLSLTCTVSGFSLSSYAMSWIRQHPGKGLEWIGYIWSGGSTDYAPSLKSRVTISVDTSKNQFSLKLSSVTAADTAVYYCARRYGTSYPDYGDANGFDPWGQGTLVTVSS VL: AIQLTQSPSSLSASVGDRVTITCRASQSISSYLAWYQQKPGKAPKLLIYRASTLASGVPSRFSGSGSGTDFTLTISSLQPEDFATYYCQQSYSSSNVDNTFGGGTKVEIK | T
2/99 VH13/VL5 (antibody, V domains shown) VH: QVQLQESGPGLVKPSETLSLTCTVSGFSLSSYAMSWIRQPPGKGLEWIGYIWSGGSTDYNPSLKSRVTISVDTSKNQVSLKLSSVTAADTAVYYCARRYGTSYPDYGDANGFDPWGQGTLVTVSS VL: DIQMTQSPSSLSASVGDRVTITCRASQSISSYLSWYQQKPGKAPKLLIYRASTLASGVPSRFSGSGSGTDFTLTISSLQPEDFATYYCQQSYSSSNVDNTFGGGTKVEIK | F
2/99 VH20/VL4 (antibody, V domains shown) VH: QSMQESGPGLVKPSQTLSLTCTVSGFSLSSYAMSWIRQHPGKGLEWIGYIWSGGSTDYAPSLKSRVTISVDTSKNQVSLKLSSVTAADTAVYYCARRYGTSYPDYGDANGFDPWGQGTLVTVSS VL: AYQMTQSPSSLSASVGDRVTITCRASQSISSYLSWYQQKPGKAPKLLIYRASTLASGVPSRFSGSGSGTDFTLTISSLQPEDFATYYCQQSYSSSNVDNTFGGGTKVEIK | F
2/99 VH13/VL7 (antibody, V domains shown) VH: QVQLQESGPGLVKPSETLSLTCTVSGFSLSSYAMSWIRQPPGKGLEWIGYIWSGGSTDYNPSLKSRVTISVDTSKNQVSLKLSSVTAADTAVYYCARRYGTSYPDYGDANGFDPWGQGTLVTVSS VL: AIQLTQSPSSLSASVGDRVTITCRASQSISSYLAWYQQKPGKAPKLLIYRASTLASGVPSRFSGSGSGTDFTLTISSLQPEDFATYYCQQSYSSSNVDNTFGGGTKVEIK | F
2/99 VH7/VL17 (antibody, V domains shown) VH: QQLVETGGGLIQPGGSLRLSCAASGFSLSSYAMSWVRQAPGKGLEWIGYIWSGGSTDYASWAKGRFTISRDNSKNTLYLQMNSLRAEDTAVYYCARRYGTSYPDYGDANGFDPWGQGTLVTVSS VL: AIQLTQSPSSLSASVGDRVTITCRASQSISSYLAWYQQKPGKAPKLLIYRASTLASGVPSRFSGSGSGTDFTLTISSLQPEDFATYYCQQTYSSSNVDNTFGGGTKVEIK | T
2/99 VH11/VL5 (antibody, V domains shown) VH: QQLLESGGGLVQPGGSLRLSCAASGFSLSSYAMSWVRQAPGKGLEWVGYIWSGGSTDYADSVKGRFTISRDNSKNTLYLQMNSLRAEDTAVYYCARRYGTSYPDYGDANGFDPWGQGTLVTVSS VL: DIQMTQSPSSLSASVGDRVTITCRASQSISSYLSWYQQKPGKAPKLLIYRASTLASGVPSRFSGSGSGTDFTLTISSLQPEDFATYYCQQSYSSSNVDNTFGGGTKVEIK | F
2/99 VH23-DANG/VL8 (antibody, V domains shown) VH: QSMQESGPGLVKPSQTLSLTCTVSGFSLSSYAMSWIRQHPGKGLEWIGYIWSGGSTDYASWAKSRVTISKTSTTVSLKLSSVTAADTAVYYCARRYGTSYPDYGDANGFDPWGQGTLVTVSS VL: AYQLTQSPSSLSASVGDRVTITCRASQSISSYLSWYQQKPGKAPKLLIYRASTLASGVPSRFSGSGSGTDFTLTISSLQPEDFATYYCQQSYSSSNVDNTFGGGTKVEIK | T
2/99 VH1/VL8 (antibody, V domains shown) VH: VQLVETGGGLIQPGGSLRLSCAASGFSLSSYAMSWVRQAPGKGLEWVGYIWSGGSTDYADSVKGRFTISRDNSKNTLYLQMNSLRAEDTAVYYCARRYGTSYPDYGDANGFDPWGQGTLVTVSS VL: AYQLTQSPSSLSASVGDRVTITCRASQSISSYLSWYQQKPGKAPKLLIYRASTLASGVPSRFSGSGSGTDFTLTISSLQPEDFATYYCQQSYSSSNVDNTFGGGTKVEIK | F
